test system: Target C mRNA; test: RT-qPCR splicing assay panel, Target C canonical junction (CJ) mRNA; format: cell-based, human; conditions: Homo sapiens, canonical junction (CJ) mRNA, RT-qPCR panel, Table 4A; read-out: Target C, decrease in CJ mRNA levels, IC50
What IC50 was measured for each of the following?

Guide cases for IC50, answers given:
Cc1ncc(-c2ccc(-c3ccc(N4CC[C@@](C)(NC5CCC5)C4)nn3)c(O)c2)s1 | 100 to 1000 nM
CN(C1CCC1)[C@H]1CCN(c2ccc(-c3ccc(-c4cn[nH]c4)cc3O)nn2)C1 | 100 to 1000 nM
Cc1ncc(-c2ccc(-c3ccc(N4CC[C@H](N(C)C5CCC5)C4)nn3)c(O)c2)s1 | > 10000 nM

Please turn your attention to the following entry.
Exercise: Given the compound Cc1ncc(-c2cc(O)c(-c3ccc(N4CC[C@@H](N[C@H](C)C5CC5)C4)nn3)cc2F)s1 , write its reported IC50.
Key: < 100 nM

* * *

system: HTT mRNA; experiment: RT-qPCR splicing assay, HTT canonical (CJ) and alternative (AJ) junction mRNA; format: cell-based, human; conditions: Homo sapiens, 24 h, Table 3A; A673 or K562 cells, 24 h treatment; read-out: HTT CJ (IC50, decrease in CJ mRNA)
What IC50 was measured for each of the following?

Guide cases for IC50, answers given:
CCc1ncc(-c2cc(O)c(-c3ccc(N4CCC(NC5CCC5)C4)nn3)cc2F)s1 (stereo not shown) | > 10000 nM
COc1cc(-c2ccc(-c3ccc(N4CCC(C)(NC5CCC5)C4)nn3)c(O)c2)cnn1 (stereo not shown) | < 100 nM
Cc1ncc(-c2ccc(-c3ccc(N4CC[C@@](C)(NCC5CC5)C4)nn3)c(O)c2)s1 (single isomer, unassigned) | < 100 nM

I have 4 compounds here; please give me IC50 for each one.
1. COc1cc(-c2ccc(-c3ccc(N4CC[C@H](NC5(C)CCC5)C4)nn3)c(O)c2)cnn1
2. CC1(NC2CCN(c3ccc(-c4cc(F)c(-c5cn[nH]c5)cc4O)nn3)C2)CC1 (stereo not shown)
3. COc1cc(-c2ccc(-c3ccc(N4CC[C@](C)(NC5CCC5)C4)nn3)c(O)c2)ncn1
4. Cc1nnc(-c2cc(O)c(-c3ccc(N4CC[C@@H](NCC5CC5)C4)nn3)cc2F)s1

Key:
< 100 nM
< 100 nM
< 100 nM
100 to 1000 nM

* * *

tested on: SMN2 mRNA; test: RT-qPCR splicing assay panel, SMN2 canonical junction (CJ) mRNA; format: cell-based, human; conditions: Homo sapiens, canonical junction (CJ) mRNA, RT-qPCR panel, Table 4A; read-out: SMN2, decrease in CJ mRNA levels, IC50
pIC50: −log10 of the molar value.
What pIC50 was measured for each of the following?

Guide cases for pIC50, answers given:
COc1cc(-c2ccc(-c3ccc(N4CCC(NCC5CC5)C4)nn3)c(O)c2)nc(C)n1 (stereo not shown) | 5.00 to 6.00
CNc1cc(-c2ccc(-c3ccc(N4CC[C@@H](NC(C)(C)C)C4)nn3)c(O)c2)ncn1 | > 7.00
Cn1cc2cc(-c3ccc(-c4ccc(N5CCC(NC6CCC6)C5)nn4)c(O)c3)ncc2n1 (stereo not shown) | > 7.00
CC1(C)CC(Oc2ccc(-c3cc(F)c(-c4cn[nH]c4)cc3O)nn2)CC(C)(C)N1 | > 7.00
Oc1cc(-c2cn[nH]c2)c(F)cc1-c1ccc(N2CCC(NC3CC3)C2)nn1 (stereo in doubt) | > 7.00

I have 4 molecules here; please give me pIC50 for each one.
1. Cc1ncc(-c2cc(O)c(-c3ccc(N4CCC(NC5CCOC5)C4)nn3)cc2F)s1 (stereo not shown)
2. COc1cc(-c2ccc(-c3ccc(N4CC[C@@H](NC5CCC5)C4)nn3)c(O)c2)ncn1
3. COc1cc(-c2ccc(-c3ccc(N4CC[C@H](NCC5CC5)C4)nn3)c(O)c2)ncn1
4. COc1cc(-c2ccc(-c3ccc(N4CC[C@@H](NC(C)(C)C)C4)nn3)c(O)c2)cnn1

Key:
1. > 7.00
2. > 7.00
3. > 7.00
4. > 7.00

I have 6 molecules here; please give me pIC50 for each one.
1. COc1cc(-c2ccc(-c3ccc(N4CC[C@@H](NC5CCC5)C4)nn3)c(O)c2)cnn1
2. Cc1ncc(-c2cc(O)c(-c3ccc(N4CC[C@@H](NCC5CCC5)C4)nn3)cc2F)s1
3. Oc1cc(-c2cnnc(C3CC3)c2)ccc1-c1ccc(N2CC[C@@H](NC3CCC3)C2)nn1
4. Cc1ncc(-c2cc(O)c(-c3ccc(N4CCC(NC5CCCC5)C4)nn3)cc2F)s1 (stereo not shown)
5. Cc1ncc(-c2ccc(-c3ccc(N4CC[C@H](N(C)C5CCC5)C4)nn3)c(O)c2)s1
6. COc1cc(-c2ccc(-c3ccc(N4CC[C@@H](CNC5CCC5)C4)nn3)c(O)c2)cnn1

Key:
1. > 7.00
2. > 7.00
3. 6.00 to 7.00
4. > 7.00
5. 6.00 to 7.00
6. > 7.00

I have 2 molecules here; please give me pIC50 for each one.
1. Cc1cc(-c2ccc(-c3ccc(N4CC[C@@H](NC5CCC5)C4)nn3)c(O)c2)cnn1
2. Cc1ccc(-c2ccc(-c3ccc(N4CCC(NC5CCC5)C4)nn3)c(O)c2)o1 (stereo not shown)

Key:
1: 5.00 to 6.00; 2: 5.00 to 6.00

I have 7 molecules here; please give me pIC50 for each one.
1. Cc1ncc(-c2cc(O)c(-c3ccc(N4CC[C@H](CNC5CCC5)C4)nn3)cc2F)s1
2. CC(C)(C)N[C@H]1CCN(c2ccc(-c3ccc(-c4cn[nH]c4)cc3O)nn2)C1 [Compound 101]
3. COc1cc(-c2ccc(-c3ccc(N4CCC(NC5CCC5)C4)nn3)c(O)c2)c(F)cn1 (stereo not shown)
4. Oc1cc(-c2cnc(C(F)(F)F)s2)c(F)cc1-c1ccc(N2CCC(NC3CCC3)C2)nn1 (stereo not shown)
5. Cc1ncc(-c2cc(O)c(-c3ccc(N4CC[C@@H](N(C)C(C)(C)C)C4)nn3)cc2F)s1
6. Cc1ncc(-c2cc(O)c(-c3ccc(N4CC[C@@H](N[C@H](C)C5CC5)C4)nn3)cc2F)s1
7. CN(C1CCN(c2ccc(-c3cc(F)c(-c4cn[nH]c4)cc3O)nn2)C1)C(C)(C)C (stereo in doubt) [Compound 120]

Key:
1. > 7.00
2. > 7.00
3. 5.00 to 6.00
4. 5.00 to 6.00
5. > 7.00
6. > 7.00
7. > 7.00

I have 6 molecules here; please give me pIC50 for each one.
1. COc1cc(-c2ccc(-c3ccc(N4CCC(N[C@H]5C[C@@H](O)C5)C4)nn3)c(O)c2)cnn1 (stereo partly shown)
2. Oc1cc(-c2cnc(C3CC3)s2)c(F)cc1-c1ccc(N2CCC(NC3CCC3)C2)nn1 (stereo not shown)
3. Oc1cc(-c2cn[nH]c2)ccc1-c1ccc(N2CCN[C@@H](C3CC3)C2)nn1
4. CC1(C)CC(Oc2nnc(-c3ccc(-c4cn[nH]c4)cc3O)cc2C#N)CC(C)(C)N1
5. COc1cc(-c2ccc(-c3ccc(N4CC[C@@](C)(NC5CCC5)C4)nn3)c(O)c2)ncn1
6. CCN(C1CCC1)[C@H]1CCN(c2ccc(-c3ccc(-c4cnnc(OC)c4)cc3O)nn2)C1

Key:
> 7.00
5.00 to 6.00
> 7.00
6.00 to 7.00
> 7.00
> 7.00

Exercise: Given the molecule Cn1ccc(-c2ccc(-c3ccc(N4CCC(NC5CCC5)C4)nn3)c(O)c2)nc1=O (stereo not shown) , write its reported pIC50.
Key: 6.00 to 7.00

* * *

What AC50 was measured for each of the following?
system: HTT mRNA; assay: RT-qPCR splicing assay, HTT canonical (CJ) and alternative (AJ) junction mRNA; type: cell-based, human; details: Homo sapiens, 24 h, Table 3B; A673 or K562 cells, 24 h treatment; read-out: HTT AJ (AC50, increase in AJ mRNA)

CC(C)(C)NC1CCN(c2ccc(-c3cc4ccncc4cc3O)nn2)C1 (stereo not drawn) | < 0.1 µM
Cc1nc2cc(O)c(-c3ccc(N4CC[C@H](NC(C)(C)C)C4)nn3)cc2o1 | 1 to 10 µM

Please turn your attention to the following entry.
Exercise: Given the compound Cn1ccc2cc(O)c(-c3cnc(N4CCC(NC(C)(C)C)C4)nn3)cc2c1=O (stereo not drawn) , write its reported AC50.
Key: > 10 µM

* * *

tested on: SMN2 mRNA; assay: RT-qPCR splicing assay panel, SMN2 canonical junction (CJ) mRNA; format: cell-based, human; conditions: Homo sapiens, canonical junction (CJ) mRNA, RT-qPCR panel, Table 4A; read-out: SMN2, decrease in CJ mRNA levels, IC50
pIC50: −log10 of the molar value.
OBSERVATION TYPE: pIC50

COc1cc(-c2cc(O)c(-c3ccc(N4CC[C@@](C)(NC5CCC5)C4)nn3)cc2F)cnn1 (single isomer, unassigned) [Compound 308] | > 7.00
COc1cncc(-c2cc(O)c(-c3ccc(N4CC[C@H](NC5CCC5)C4)nn3)cc2F)c1 [Compound 224] | 5.00 to 6.00
Oc1cc(-c2cnn3c2CCC3)ccc1-c1ccc(N2CCC(NC3CCC3)C2)nn1 (stereo not drawn) [Compound 362] | 6.00 to 7.00
Cc1cc(-c2ccc(-c3ccc(N4CC[C@H](NC5CCC5)C4)nn3)c(O)c2)cnn1 [Compound 291] | 5.00 to 6.00

I have 2 molecules here; please give me pIC50 for each one.
1. Cc1ccc(-c2ccc(-c3ccc(N4CC[C@H](NC5CCC5)C4)nn3)c(O)c2)cn1 [Compound 281]
2. Cn1ncc(-c2ccc(-c3ccc(N4CC[C@H](NC(C)(C)C)C4)nn3)c(O)c2)cc1=O [Compound 298]

Key:
1: > 7.00; 2: > 7.00

I have 7 molecules here; please give me pIC50 for each one.
1. COc1cc(-c2ccc(-c3ccc(N4CC[C@@H](N[C@H]5C[C@H](F)C5)C4)nn3)c(O)c2)ncn1 [Compound 427]
2. COc1nccc(-c2ccc(-c3ccc(N4CCC(NCC5CC5)C4)nn3)c(O)c2)n1 (stereo not drawn) [Compound 368]
3. Cc1ncc(-c2cc(O)c(-c3ccc(N4CC[C@H](N(C)C(C)(C)C)C4)nn3)cc2F)s1 [Compound 322]
4. Cc1nc(F)c(-c2cc(O)c(-c3ccc(N4CCC(NC5CCC5)C4)nn3)cc2F)s1 (stereo not drawn) [Compound 378]
5. COc1cc(-c2ccc(-c3ccc(N4CC[C@@H](N(C)C(C)(C)C)C4)nn3)c(O)c2)cnn1 [Compound 336]
6. CN(C1CCC1)[C@H]1CCN(c2ccc(-c3ccc(-c4cn[nH]c4)cc3O)nn2)C1 [Compound 294]
7. COc1cc(-c2cc(O)c(-c3ccc(N4CC[C@@H](N[C@H]5C[C@@H](F)C5)C4)nn3)cc2F)cnn1 (racemic) [Compound 161]

Key:
["6.00 to 7.00", "6.00 to 7.00", "> 7.00", "6.00 to 7.00", "> 7.00", "> 7.00", "> 7.00"]

I have 7 molecules here; please give me pIC50 for each one.
1. Oc1cc(-c2cnn3c2CCC3)c(F)cc1-c1ccc(N2CCC(NC3CCC3)C2)nn1 (stereo not drawn) [Compound 443]
2. Oc1cc(-c2cn[nH]c2)ccc1-c1ccc(N2CCC(NC3(C(F)F)CC3)C2)nn1 (stereo not drawn) [Compound 117]
3. CN(c1ccc(-c2ccc(-c3cn[nH]c3)cc2O)nn1)C1CC(C)(C)NC(C)(C)C1 [Compound 360]
4. COc1cc(-c2ccc(-c3ccc(N4CC[C@@H](NC5(C)CCC5)C4)nn3)c(O)c2)ncn1 [Compound 383]
5. Cc1nnc(-c2cc(O)c(-c3ccc(N4CC[C@H](NCC5CC5)C4)nn3)cc2F)s1 [Compound 401]
6. COc1cc(-c2ccc(-c3ccc(OC4CC(C)(C)NC(C)(C)C4)nn3)c(O)c2)cnn1 [Compound 271]
7. Cc1ccc(-c2cc(O)c(-c3ccc(N4CC[C@H](NC5CCC5)C4)nn3)cc2F)cn1 [Compound 223]

Key:
["5.00 to 6.00", "6.00 to 7.00", "> 7.00", "> 7.00", "6.00 to 7.00", "> 7.00", "6.00 to 7.00"]

I have 8 molecules here; please give me pIC50 for each one.
1. Cc1ncc(-c2ccc(-c3ccc(N4CC[C@@H](NCC5CC5)C4)nn3)c(O)c2)s1 [Compound 379]
2. COc1cc(-c2ccc(-c3ccc(N4CC[C@H](N(CCF)C5CCC5)C4)nn3)c(O)c2)cnn1 [Compound 303]
3. CNc1cc(-c2ccc(-c3ccc(N4CCC(NCC5CC5)C4)nn3)c(O)c2)ncn1 (stereo not drawn) [Compound 434]
4. COc1cc(-c2ccc(-c3ccc(N4CC[C@H](N[C@H]5C[C@H](F)C5)C4)nn3)c(O)c2)ncn1 [Compound 426]
5. Oc1cc(-c2cn[nH]c2)ccc1-c1ccc(N2CCC(NC3(C(F)(F)F)CC3)C2)nn1 (stereo not drawn) [Compound 110]
6. Cc1ncc(-c2cc(O)c(-c3ccc(OC4CC(C)(C)NC(C)(C)C4)nn3)cc2F)s1 [Compound 385]
7. Cc1cn2nc(-c3ccc(-c4ccc(N5CCC(NC6CCC6)C5)nn4)c(O)c3)cc(C)c2n1 (stereo not drawn) [Compound 317]
8. COc1cc(-c2cc(O)c(-c3ccc(N4CCC(C)(NC5CCC5)C4)nn3)cc2F)cnn1 (stereo not drawn) [Compound 310]

Key:
1: > 7.00; 2: 6.00 to 7.00; 3: > 7.00; 4: 6.00 to 7.00; 5: < 5.00; 6: > 7.00; 7: 6.00 to 7.00; 8: > 7.00

I have 2 molecules here; please give me pIC50 for each one.
1. CC1(C)CC(Oc2ncc(-c3cc(F)c(-c4cn[nH]c4)cc3O)nn2)CC(C)(C)N1 [Compound 377]
2. Cc1ncc(-c2ccc(-c3ccc(N4CC[C@@](C)(NCC5CC5)C4)nn3)c(O)c2)s1 (single isomer, unassigned) [Compound 439]

Key:
1: 6.00 to 7.00; 2: > 7.00
